Biological target: Ba/F3 cells expressing EGFR-C797S/Del19 (Homo sapiens, UniProt P00533, C797S, cells depend on it, form not given)
Sequence (P00533 with tags, fused parts or gaps DEL746-750/C797S, form open): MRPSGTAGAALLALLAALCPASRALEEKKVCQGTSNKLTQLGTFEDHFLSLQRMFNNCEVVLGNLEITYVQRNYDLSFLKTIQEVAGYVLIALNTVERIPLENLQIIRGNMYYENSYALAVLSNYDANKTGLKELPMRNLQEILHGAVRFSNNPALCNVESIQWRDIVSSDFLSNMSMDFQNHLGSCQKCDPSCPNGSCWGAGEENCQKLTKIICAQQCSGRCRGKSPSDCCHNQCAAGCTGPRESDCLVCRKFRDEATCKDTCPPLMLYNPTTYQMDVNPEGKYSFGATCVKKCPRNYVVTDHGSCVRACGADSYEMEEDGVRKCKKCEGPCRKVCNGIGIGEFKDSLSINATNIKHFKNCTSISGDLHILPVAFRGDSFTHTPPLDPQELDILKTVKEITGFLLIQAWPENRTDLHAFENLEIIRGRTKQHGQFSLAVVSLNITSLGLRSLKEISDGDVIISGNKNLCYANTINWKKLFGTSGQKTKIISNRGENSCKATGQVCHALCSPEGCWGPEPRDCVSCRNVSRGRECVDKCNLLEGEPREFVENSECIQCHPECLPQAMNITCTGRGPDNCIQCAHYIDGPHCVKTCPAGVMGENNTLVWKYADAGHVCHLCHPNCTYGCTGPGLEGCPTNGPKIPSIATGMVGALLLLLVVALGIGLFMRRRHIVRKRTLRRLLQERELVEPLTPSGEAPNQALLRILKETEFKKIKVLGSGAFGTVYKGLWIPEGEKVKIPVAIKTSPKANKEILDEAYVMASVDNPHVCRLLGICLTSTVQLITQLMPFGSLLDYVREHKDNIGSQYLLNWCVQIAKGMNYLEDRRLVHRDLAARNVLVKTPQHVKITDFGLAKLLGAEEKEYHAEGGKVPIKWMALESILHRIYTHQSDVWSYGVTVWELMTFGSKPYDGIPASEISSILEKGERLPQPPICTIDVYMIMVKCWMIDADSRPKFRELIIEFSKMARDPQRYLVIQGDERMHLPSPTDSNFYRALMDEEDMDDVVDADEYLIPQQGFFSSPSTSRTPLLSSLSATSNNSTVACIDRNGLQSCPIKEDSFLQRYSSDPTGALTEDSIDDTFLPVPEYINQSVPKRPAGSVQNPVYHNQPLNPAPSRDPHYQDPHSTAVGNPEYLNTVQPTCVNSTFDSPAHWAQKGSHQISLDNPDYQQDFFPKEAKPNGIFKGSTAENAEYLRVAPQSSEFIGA
Assay: Cell anti-proliferation experiment 1, BaF3 cells expressing EGFR mutation (CellTiter-Glo)
Type: cell-based
Conditions: 3 days, CTG, read-out: EGFR-C797S-Del19 IC50
parameter: GI50 (nM)

[
  {
    "compound": "COc1cc(N2CCC(N3CCN(C)CC3)CC2)ccc1Nc1ncc(Cl)c(Nc2ccc(C)cc2P(C)(C)=O)n1 [Control compound 3]",
    "GI50 [nM]": 203
  },
  {
    "compound": "COc1cc(N2CCC(N3CCN(C)CC3)CC2)c(C)cc1Nc1ncc(Cl)c(Nc2ccccc2P(C)(C)=O)n1 [Control compound 2]",
    "GI50 [nM]": 177
  },
  {
    "compound": "COc1cc(N2CCC(N3CCN(C)CC3)CC2)c(C)cc1Nc1ncc(Br)c(Nc2ccc(C)cc2P(C)(C)=O)n1",
    "GI50 [nM]": 48.1
  },
  {
    "compound": "COc1cc(N2CCC(N3CCN(C)CC3)CC2)c(C)cc1Nc1ncc(Cl)c(Nc2cccc(C)c2P(C)(C)=O)n1 [Control compound 1]",
    "GI50 [nM]": 184
  }
]

====

Biological target: Ba/F3 cells expressing EGFR-T790M/Del19 (Homo sapiens, UniProt P00533, T790M, cells depend on it, form not given)
Sequence (P00533 with tags, fused parts or gaps DEL746-750/T790M, form open): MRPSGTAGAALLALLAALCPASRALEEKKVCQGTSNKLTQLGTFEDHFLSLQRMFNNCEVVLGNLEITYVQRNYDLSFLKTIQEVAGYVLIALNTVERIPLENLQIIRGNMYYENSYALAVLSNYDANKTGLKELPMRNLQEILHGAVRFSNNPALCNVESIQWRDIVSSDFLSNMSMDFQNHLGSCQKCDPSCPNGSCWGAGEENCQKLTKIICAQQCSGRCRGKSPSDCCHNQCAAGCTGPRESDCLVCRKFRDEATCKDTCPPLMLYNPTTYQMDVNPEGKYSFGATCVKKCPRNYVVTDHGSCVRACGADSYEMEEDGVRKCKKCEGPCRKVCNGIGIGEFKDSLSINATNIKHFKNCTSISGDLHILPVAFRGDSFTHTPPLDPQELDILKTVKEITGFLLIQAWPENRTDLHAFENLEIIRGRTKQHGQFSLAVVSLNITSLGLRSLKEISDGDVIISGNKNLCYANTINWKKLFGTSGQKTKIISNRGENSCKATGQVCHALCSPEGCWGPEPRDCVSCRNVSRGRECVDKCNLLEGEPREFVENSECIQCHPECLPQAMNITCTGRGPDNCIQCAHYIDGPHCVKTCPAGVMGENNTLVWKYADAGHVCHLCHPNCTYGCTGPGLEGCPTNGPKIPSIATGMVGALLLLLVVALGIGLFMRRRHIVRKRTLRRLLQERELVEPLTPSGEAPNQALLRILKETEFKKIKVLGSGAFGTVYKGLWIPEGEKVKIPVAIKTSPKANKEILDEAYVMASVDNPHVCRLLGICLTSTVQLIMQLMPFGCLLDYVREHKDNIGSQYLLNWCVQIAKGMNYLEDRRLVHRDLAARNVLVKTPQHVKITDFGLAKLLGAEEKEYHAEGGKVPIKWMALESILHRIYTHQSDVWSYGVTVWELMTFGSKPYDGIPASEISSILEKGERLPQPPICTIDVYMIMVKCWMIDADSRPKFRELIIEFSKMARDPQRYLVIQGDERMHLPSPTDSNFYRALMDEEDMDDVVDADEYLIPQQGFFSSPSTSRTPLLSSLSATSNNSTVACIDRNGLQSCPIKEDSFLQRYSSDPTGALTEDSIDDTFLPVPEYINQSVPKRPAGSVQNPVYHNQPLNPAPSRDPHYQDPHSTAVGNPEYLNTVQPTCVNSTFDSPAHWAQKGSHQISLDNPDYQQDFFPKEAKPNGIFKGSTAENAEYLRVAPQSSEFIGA
Test: Cell anti-proliferation experiment 1, BaF3 cells expressing EGFR mutation (CellTiter-Glo)
Format: cell-based
Details: 3 days, CTG, read-out: EGFR-T790M/Del19 IC50
parameter: GI50 (nM)

[
  {
    "compound": "COc1cc(N2CCC(N3CCN(C)CC3)CC2)c(C)cc1Nc1ncc(Cl)c(Nc2ccccc2P(C)(C)=O)n1 [Control compound 2]",
    "GI50 / nM": 172
  },
  {
    "compound": "COc1cc(N2CCC(N3CCN(C)CC3)CC2)c(C)cc1Nc1ncc(Cl)c(Nc2cccc(C)c2P(C)(C)=O)n1 [Control compound 1]",
    "GI50 / nM": 166
  },
  {
    "compound": "COc1cc(N2CCC(N3CCN(C)CC3)CC2)c(C)cc1Nc1ncc(Br)c(Nc2ccc(C)cc2P(C)(C)=O)n1",
    "GI50 / nM": 6.5
  },
  {
    "compound": "COc1cc(N2CCC(N3CCN(C)CC3)CC2)ccc1Nc1ncc(Cl)c(Nc2ccc(C)cc2P(C)(C)=O)n1 [Control compound 3]",
    "GI50 / nM": 216
  }
]

====

Molecular target: Ba/F3 cells expressing EGFR-WT (Homo sapiens, UniProt P00533)
Sequence (P00533 whole entry, change not shown): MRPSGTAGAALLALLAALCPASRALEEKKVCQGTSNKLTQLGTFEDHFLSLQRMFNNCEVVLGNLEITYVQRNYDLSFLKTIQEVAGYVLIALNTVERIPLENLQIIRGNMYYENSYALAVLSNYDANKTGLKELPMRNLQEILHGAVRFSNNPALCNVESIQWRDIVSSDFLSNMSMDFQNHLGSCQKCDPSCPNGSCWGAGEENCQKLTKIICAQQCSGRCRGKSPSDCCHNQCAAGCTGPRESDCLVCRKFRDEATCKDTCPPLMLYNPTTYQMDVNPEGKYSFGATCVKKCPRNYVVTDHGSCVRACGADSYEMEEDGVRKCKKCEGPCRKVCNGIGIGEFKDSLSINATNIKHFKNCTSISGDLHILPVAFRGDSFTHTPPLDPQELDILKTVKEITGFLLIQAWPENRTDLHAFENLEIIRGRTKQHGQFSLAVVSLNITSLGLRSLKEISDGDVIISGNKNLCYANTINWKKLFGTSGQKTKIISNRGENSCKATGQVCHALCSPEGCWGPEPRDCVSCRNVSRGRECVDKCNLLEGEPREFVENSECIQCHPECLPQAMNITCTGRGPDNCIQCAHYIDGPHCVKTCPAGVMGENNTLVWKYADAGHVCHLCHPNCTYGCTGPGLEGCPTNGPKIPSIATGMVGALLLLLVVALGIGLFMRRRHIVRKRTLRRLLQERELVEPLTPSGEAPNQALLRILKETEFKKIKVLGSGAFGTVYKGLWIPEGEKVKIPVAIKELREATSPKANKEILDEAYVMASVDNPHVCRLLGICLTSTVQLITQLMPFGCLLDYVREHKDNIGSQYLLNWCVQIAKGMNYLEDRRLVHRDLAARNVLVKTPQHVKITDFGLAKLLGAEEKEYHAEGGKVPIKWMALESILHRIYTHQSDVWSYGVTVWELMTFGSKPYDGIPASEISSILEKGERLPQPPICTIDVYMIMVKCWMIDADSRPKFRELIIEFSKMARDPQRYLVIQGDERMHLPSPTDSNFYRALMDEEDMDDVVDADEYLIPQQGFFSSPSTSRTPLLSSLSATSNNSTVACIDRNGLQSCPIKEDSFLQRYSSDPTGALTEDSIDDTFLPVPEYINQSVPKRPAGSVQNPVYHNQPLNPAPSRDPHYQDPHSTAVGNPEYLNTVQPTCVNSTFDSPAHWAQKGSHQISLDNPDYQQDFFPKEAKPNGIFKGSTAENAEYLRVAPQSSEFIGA
Assay: Cell anti-proliferation experiment 1, BaF3 EGFR-WT wild-type cell line (CellTiter-Glo)
Format: cell-based
Conditions: read-out: EGFR-WT IC50
parameter: GI50 (nM)

[
  {
    "molecule": "COc1cc(N2CCC(N3CCN(C)CC3)CC2)c(C)cc1Nc1ncc(Br)c(Nc2ccc(C)cc2P(C)(C)=O)n1 [Compound DA]",
    "measured_target": "Ba/F3 cells expressing EGFR-WT (Homo sapiens, UniProt P00533)",
    "GI50 / nM": 1260
  },
  {
    "molecule": "COc1cc(N2CCC(N3CCN(C)CC3)CC2)c(C)cc1Nc1ncc(Cl)c(Nc2ccccc2P(C)(C)=O)n1 [Control compound 2]",
    "measured_target": "Ba/F3 cells expressing EGFR-WT (Homo sapiens, UniProt P00533)",
    "GI50 / nM": 1760
  }
]

[I] COc1cc(N2CCC(N3CCN(C)CC3)CC2)ccc1Nc1ncc(Cl)c(Nc2ccc(C)cc2P(C)(C)=O)n1 [Control compound 3]
[II] COc1cc(N2CCC(N3CCN(C)CC3)CC2)c(C)cc1Nc1ncc(Cl)c(Nc2cccc(C)c2P(C)(C)=O)n1 [Control compound 1]
Lookup: Response body: label of entry with the larger GI50; valid values I , II . Select an item and report its label.
Found: I
(I: 2340 nM, II: 1600 nM)
